Experiment: Homogenization stability in mouse tissues
Type: in vitro ADME
Conditions: blank heart tissue, homogenized
RECORDED ENDPOINT: recovery at 3240 ng/mL (%)
All answers are understood in %, so give the number only.

Fill in reported recovery at 3240 ng/mL for this entry: COc1ccc2[nH]c3c(-c4cccc5ccccc45)nccc3c2c1
86.6

* * *

Experiment: Homogenization stability in mouse tissues
Type: in vitro ADME
Conditions: blank brain tissue, homogenized
RECORDED ENDPOINT: recovery at 324 ng/mL (%)
All answers are understood in %, so give the number only.

Fill in reported recovery at 324 ng/mL for this entry: COc1ccc2[nH]c3c(-c4cccc5ccccc45)nccc3c2c1
91.3

* * *

Experiment: Homogenization stability in mouse tissues
Format: in vitro ADME
Details: blank liver tissue, homogenized
RECORDED ENDPOINT: recovery at 324 ng/mL (%)
All answers are understood in %, so give the number only.

Fill in reported recovery at 324 ng/mL for this entry: COc1ccc2[nH]c3c(-c4cccc5ccccc45)nccc3c2c1
86.7

* * *

Test: Homogenization stability in mouse tissues
Type: in vitro ADME
Conditions: blank tumor tissue, homogenized
RECORDED ENDPOINT: recovery at 324 ng/mL

Fill in reported recovery at 324 ng/mL for this entry: COc1ccc2[nH]c3c(-c4cccc5ccccc45)nccc3c2c1 [SP-141]
99.6%

* * *

Assay: Homogenization stability in mouse tissues
Type: in vitro ADME
Details: blank tumor tissue, homogenized
RECORDED ENDPOINT: recovery at 3240 ng/mL (%)
All answers are understood in %, so give the number only.

Fill in reported recovery at 3240 ng/mL for this entry: COc1ccc2[nH]c3c(-c4cccc5ccccc45)nccc3c2c1
99.1

* * *

Experiment: Homogenization stability in mouse tissues
Format: in vitro ADME
Conditions: blank kidney tissue, homogenized
RECORDED ENDPOINT: recovery at 324 ng/mL (%)
All answers are understood in %, so give the number only.

Fill in reported recovery at 324 ng/mL for this entry: COc1ccc2[nH]c3c(-c4cccc5ccccc45)nccc3c2c1 [SP-141]
82.5

* * *

Test: Homogenization stability in mouse tissues
Type: in vitro ADME
Conditions: blank liver tissue, homogenized
RECORDED ENDPOINT: recovery at 3240 ng/mL (%)
All answers are understood in %, so give the number only.

Fill in reported recovery at 3240 ng/mL for this entry: COc1ccc2[nH]c3c(-c4cccc5ccccc45)nccc3c2c1 [SP-141]
89.2

* * *

Experiment: Homogenization stability in mouse tissues
Assay type: in vitro ADME
Conditions: blank spleen tissue, homogenized
RECORDED ENDPOINT: recovery at 324 ng/mL (%)
All answers are understood in %, so give the number only.

Fill in reported recovery at 324 ng/mL for this entry: COc1ccc2[nH]c3c(-c4cccc5ccccc45)nccc3c2c1
93

* * *

Format: in vivo, female nu/nu mice
Details: female, nu/nu, mouse, plasma, intraperitoneal, 40 mg/kg
RECORDED ENDPOINT: concentration at 10 min

Fill in reported concentration at 10 min for this entry: COc1ccc2[nH]c3c(-c4cccc5ccccc45)nccc3c2c1 [SP-141]
~3000 ng/mL

* * *

Test: Homogenization stability in mouse tissues
Type: in vitro ADME
Details: blank spleen tissue, homogenized
RECORDED ENDPOINT: recovery at 3240 ng/mL (%)
All answers are understood in %, so give the number only.

Fill in reported recovery at 3240 ng/mL for this entry: COc1ccc2[nH]c3c(-c4cccc5ccccc45)nccc3c2c1
99.7

All values here come from paper PMC4710169.
